- method-description: Antiproliferative activity against human MCF10A cells after 72 hrs by SRB assay
- Type: cell-based
- assay-conditions: MCF-10A
observation-type: IC50
Express your answer as a number followed by its unit.

Indicate its recorded IC50; the compound in question is FC(F)(F)c1cccc(/C=C\c2cc3ccccc3nc2Cl)c1
6.01 µM

----------
- System: MDA-MB-468
- method-description: Antiproliferative activity against human MDA-MB-468 cells after 72 hrs by SRB assay
- Format: functional, cell-based
- assay-conditions: MDA-MB-468, 72 h
Could you mark each record Yes if its IC50 falls strictly under 5 µM, and No if it equals or exceeds it?

Below, 5 compounds whose answers are already recorded.
compound: Fc1ccc(/C=C\c2cc3ccc(Cl)cc3nc2Cl)cc1
group-label: No

compound: COc1ccc2nc(Cl)c(/C=C/c3ccc(C(F)(F)F)cc3)cc2c1
group-label: No

compound: COc1ccc2nc(Cl)c(/C=C\c3ccc(C(F)(F)F)cc3)cc2c1
group-label: No

compound: COc1ccc2nc(Cl)c(/C=C\c3cccc(C(F)(F)F)c3)cc2c1
group-label: Yes

compound: COc1ccc2nc(Cl)c(/C=C\c3ccc(C(F)(F)F)cc3C(F)(F)F)cc2c1
group-label: No

Now let's try a different one.
# check: IC50 < 5 µM for COc1ccc2nc(Cl)c(/C=C/c3ccc(F)cc3)cc2c1
No
